# experimental-details: SU-DIPG-XXV glioma cell viability, MIPE5.0 library, qHTS (AID 1347068);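 as to IC50: cells exposed to compound for 48 hours before viability readout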
Records with an inconclusive call do not appear. Activity calls are given as the source filed them. The limit is not given here; nearly all actives have IC50 up to about 30 µM.
Valid outcomes are listed here; reply with one: active, inactive

Lookup: Which result was noted for this compound in the test: CO[C@H]1CCC(O[C@H]2C[C@H]([C@]3(C)CC[C@]4(C[C@H](O)[C@@H](C)[C@@H]([C@@H](C)/C=C(\C)C(=O)[C@H](C)C[C@H](C)C(=O)O)O4)O3)O[C@]3(O[C@@H]([C@H]4O[C@@](O)(CO)[C@H](C)C[C@@H]4C)C[C@@H]3C)[C@@H]2C)O[C@@H]1C (some centres not stated)
Found: active

Lookup: Which result was noted for this compound in the test: O=C(Oc1ccc([N+](=O)[O-])cc1)N1CCC(C(O)(c2ccc3c(c2)OCO3)c2ccc3c(c2)OCO3)CC1
Found: inactive

Lookup: Any idea what this test logged for NN=C(N)N ?
Found: inactive

Lookup: Test call for this compound, please: CN[C@@H]1C[C@H]2O[C@@](C)([C@@H]1OC)n1c3ccccc3c3c4c(c5c6ccccc6n2c5c31)C(=O)NC4
Found: active

Lookup: Just curious, what result did C[C@]12CC[C@H]3[C@@H](CC[C@@]45O[C@@H]4C(O)=C(C#N)C[C@]35C)[C@@H]1CC[C@@H]2O get here?
Found: inactive

Lookup: What is the recorded call for this compound in the test? C[C@@H]1C[C@@H]([C@H](O)CC2CC(=O)NC(=O)C2)C(=O)[C@@H](C)C1
Found: active

Lookup: What was the test verdict on C[C@H](Nc1ncnc2nc[nH]c12)c1nc2ccc(F)cc2c(=O)n1-c1ccccc1 ?
Found: inactive

These data points were gathered from PubChem BioAssay.
